target: purified human Factor XIa (Homo sapiens)
Sequence (P03951 388-625 limits assumed): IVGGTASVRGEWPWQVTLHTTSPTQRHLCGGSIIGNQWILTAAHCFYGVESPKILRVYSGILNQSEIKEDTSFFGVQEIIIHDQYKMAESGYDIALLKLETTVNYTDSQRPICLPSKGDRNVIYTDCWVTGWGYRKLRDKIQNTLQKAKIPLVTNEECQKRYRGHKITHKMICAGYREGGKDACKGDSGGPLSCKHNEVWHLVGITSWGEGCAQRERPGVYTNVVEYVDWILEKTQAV
Sequence (P03951 19-387 partner limits assumed): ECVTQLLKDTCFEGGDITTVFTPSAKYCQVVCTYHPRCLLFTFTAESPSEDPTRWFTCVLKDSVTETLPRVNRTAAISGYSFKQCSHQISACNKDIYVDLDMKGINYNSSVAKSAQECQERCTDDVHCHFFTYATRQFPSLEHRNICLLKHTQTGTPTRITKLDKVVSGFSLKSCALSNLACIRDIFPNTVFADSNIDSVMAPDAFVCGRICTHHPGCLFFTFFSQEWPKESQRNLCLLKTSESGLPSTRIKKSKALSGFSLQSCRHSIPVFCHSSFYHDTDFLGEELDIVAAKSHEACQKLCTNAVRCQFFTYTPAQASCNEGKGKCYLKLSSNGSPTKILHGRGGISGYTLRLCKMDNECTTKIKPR
pKi: −log10 of the molar value.
Please mark t if the recorded pKi is equal to or greater than 8, and f if it falls below.

compound	testedOn	cat
CCOC(=O)C1CCCCC(C(=O)N2CCC[C@@]3(C2)OC(=O)Nc2ccc(Cl)c(F)c23)c2cc(ccn2)-c2cc(F)ccc2N1 (single isomer, unassigned) [Example 34d]	purified human Factor XIa (Homo sapiens)	f
COC(=O)Nc1ccc2c(c1)NC(=O)CCCCC(C(=O)N1CCC[C@@]3(C1)OC(=O)Nc1ccc(Cl)c(F)c13)c1nc-2c(Cl)[nH]1 (mixture of isomers) [Example 8]	purified human Factor XIa (Homo sapiens)	t
CCOC(=O)C1CCCCC(C(=O)N2CCC[C@@]3(C2)OC(=O)Nc2ccc(Cl)c(F)c23)c2nc(c[nH]2)-c2ccc(NC(=O)OC)cc2N1 (single isomer, unassigned) [Example 32d]	purified human Factor XIa (Homo sapiens)	f
CCOC(=O)C1CCCCC(C(=O)N2CCC[C@@]3(C2)OC(=O)Nc2ccc(Cl)c(F)c23)c2nc(c[nH]2)-c2ccc(NC(=O)OC)cc2N1 (single isomer, unassigned) [Example 32b]	purified human Factor XIa (Homo sapiens)	t
CCOC(=O)C1CCCCC(C(=O)N2CCC[C@@]3(C2)OC(=O)Nc2ccc(Cl)c(F)c23)c2nc(c[nH]2)-c2ccc(NC(=O)OC)cc2N1 (single isomer, unassigned) [Example 32c]	purified human Factor XIa (Homo sapiens)	f
COC(=O)Nc1ccc2c(c1)NC(=O)CCCC[C@H](C(=O)N1CCC[C@@]3(C1)OC(=O)Nc1ccc(Cl)c(F)c13)c1cc(F)cc-2c1 [Example 30a]	purified human Factor XIa (Homo sapiens)	f
CCOC(=O)C1CCCCC(C(=O)N2CC[C@@]3(C2)OC(=O)Nc2ccc(Cl)c(F)c23)c2cc(ccn2)-c2cc(F)ccc2N1 (single isomer, unassigned) [Example 36b]	purified human Factor XIa (Homo sapiens)	f
Nc1ccc2c(c1)NC(=O)CC/C=C\C[C@@H](C(=O)N1CCC[C@@]3(C1)OC(=O)Nc1ccc(Cl)c(F)c13)c1cc-2ccn1 [Example 20a]	purified human Factor XIa (Homo sapiens)	f

[Q] Does the compound COC(=O)Nc1ccc2c(c1)NC(=O)[C@H](C)CCC[C@H](C(=O)N1CCC[C@@]3(C1)OC(=O)Nc1ccc(Cl)c(F)c13)C1=NC=C2O1 [Example 14b] have recorded pKi that is 8 or more?
[A] f

[Q] Item: COC(=O)Nc1ccc2c(c1)NC(=O)CC/C=C\C[C@@H](C(=O)N1CCC[C@@]3(C1)OC(=O)Nc1ccc(Cl)c(F)c13)c1cc-2ccn1 [Example 22a]
[A] t

The origin of these recorded values is patent US10344039B2.
